The reported numbers originate from PubChem BioAssay (EPA / NIEHS).

# test_details: CCTE_Shafer_MEA_acute_synchrony_index: CCTE's Neural Acute Assay for Synchrony, Shafer Lab (AID 2284027);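 further: network synchrony index of spontaneous spiking in primary rat cortical neurons on MEAs; fitted for loss of signal so actives lower synchrony relative to DMSO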
The source made the active and inactive calls. How the source made its calls: active means hit-call score of the fitted dose curve at least 0.9, where 1 is the maximum; inactive means score below 0.9.
Reported values of AC50 for individual entries

# count of solved cases: 2
molecular_string=CCN1CCC2(CC1)COc1cc3c(cc12)N(C(=O)c1ccc(-c2ccc(-c4nnc(C)o4)cc2C)cc1)CC3 result="17.2 µM (active)"
molecular_string=CC(C)(C)c1cc(O)ccc1O result="29.9 µM (active)"

Would you kindly look at the next entry?
Q: Name the recorded AC50 of the item CCC(C)(C)c1ccc(O)c(C(C)(C)CC)c1 in your answer.
Ans: 20 µM (active)

====

# Read-out: Tumor necrosis factor (Homo sapiens)
# test_details: BSK_BT_xTNFa: BioMAP Diversity Plus: BT Assay for Tumor necrosis factor alpha (TNF-alpha) Biomarker Activity (AID 2284230)
# condition_set: primary human B cells with PBMC
Calls of active or inactive are those of the source. How the source made its calls: active means hit-call score of the fitted dose curve at least 0.9, where 1 is the maximum; inactive means score below 0.9.
// classify into active, inactive

Here are 5 molecules together with their reported answers.
molecule=ClC(Cl)=C(Cl)C(Cl)=C(Cl)Cl assigned_class=inactive
molecule=CCCCCCCCC(=O)NCc1ccc(O)c(OC)c1 assigned_class=inactive
molecule=COP(=S)(OC)Oc1ccc(S(=O)(=O)N(C)C)cc1 assigned_class=inactive
molecule=COC(=O)c1sccc1S(=O)(=O)NC(=O)Nc1nc(C)nc(OC)n1 assigned_class=inactive
molecule=CC1(C)Cc2cccc(O)c2O1 assigned_class=inactive

Q: Hi, sorry to bother you, what did the test record for Nc1cccc2ccccc12 ?
Ans: inactive

Q: Hi, sorry to bother you, what did the test record for COC[C@H](C)N(C(=O)CCl)c1c(C)csc1C ?
Ans: inactive

Q: Hi, sorry to bother you, what did the test record for COP(=S)(OC)Oc1ccc(Sc2ccc(OP(=S)(OC)OC)cc2)cc1 ?
Ans: inactive

Q: Hi, sorry to bother you, what did the test record for COc1cc(OC)nc(NC(=O)NS(=O)(=O)c2ncccc2C(=O)N(C)C)n1 ?
Ans: inactive

====

# assayed_target: Hepatocyte nuclear factor 3-beta (Homo sapiens)
# test_details: ATG_FoxA2_CIS: Attagene CIS-FACTORIAL HepG2 Assay for human Forkhead box A2 (FOXA2) (AID 2282942)
# condition_set: HepG2 cis-reporter transcription factor activity, 24 h; actives raise or lower the signal
Activity calls are given as the source filed them. How the source made its calls: active means hit-call score of the fitted dose curve at least 0.9, where 1 is the maximum; inactive means score below 0.9.
// classify into active, inactive

Here are 4 compounds together with their reported answers.
compound=CCc1ccccc1N assigned_class=inactive
compound=C=C(C)C(=O)[O][Sn]([CH2]CCC)([CH2]CCC)[CH2]CCC assigned_class=inactive
compound=COP(=O)(OC)OC assigned_class=inactive
compound=CNC assigned_class=inactive

Q: Hi, sorry to bother you, what did the test record for N#CCCO ?
Ans: inactive

Q: Hi, sorry to bother you, what did the test record for NC(=S)Nc1ccccc1 ?
Ans: inactive

Q: Hi, sorry to bother you, what did the test record for COc1ccc(OC)c(C=O)c1 ?
Ans: inactive

Q: Hi, sorry to bother you, what did the test record for CCC(C)(C)c1ccc(O)c(C(C)(C)CC)c1 ?
Ans: inactive

Q: Hi, sorry to bother you, what did the test record for O=C1CCCN1 ?
Ans: inactive

Q: Hi, sorry to bother you, what did the test record for Nc1ccc(-c2ccc(N)c(Cl)c2)cc1Cl ?
Ans: inactive

Q: Hi, sorry to bother you, what did the test record for COC(=O)Cc1ccccc1 ?
Ans: inactive

Q: Hi, sorry to bother you, what did the test record for ClCc1cccnc1 ?
Ans: inactive

Q: Hi, sorry to bother you, what did the test record for O=C(O)C(F)(F)C(F)(F)C(F)(F)C(F)(F)C(F)(F)C(F)(F)C(F)(F)C(F)(F)C(F)(F)C(F)(F)F ?
Ans: inactive

Q: Hi, sorry to bother you, what did the test record for O=C/C=C/c1ccccc1 ?
Ans: inactive

Q: Hi, sorry to bother you, what did the test record for COP(=S)(OC)Oc1cc(Cl)c(Cl)cc1Cl ?
Ans: inactive

Q: Hi, sorry to bother you, what did the test record for O=C(O)C(F)(F)C(F)(F)C(F)(F)C(F)(F)C(F)(F)C(F)(F)F ?
Ans: inactive

Q: Hi, sorry to bother you, what did the test record for CC(C#N)CCC#N (stereo not given) ?
Ans: inactive

Q: Hi, sorry to bother you, what did the test record for O=C(c1ccccc1)C(Cl)Cl ?
Ans: inactive

Q: Hi, sorry to bother you, what did the test record for CCOP(OCC)OCC ?
Ans: inactive

Q: Hi, sorry to bother you, what did the test record for CCOP(=S)(OCC)Oc1nc(Cl)c(Cl)cc1Cl ?
Ans: inactive

Q: Hi, sorry to bother you, what did the test record for Clc1nc(Cl)nc(Cl)n1 ?
Ans: inactive

Q: Hi, sorry to bother you, what did the test record for COc1ccccc1OC ?
Ans: inactive

Q: Hi, sorry to bother you, what did the test record for N#CCc1ccc(Cl)cc1 ?
Ans: inactive

Q: Hi, sorry to bother you, what did the test record for CCCCCCCCSC(=O)Oc1cc(Cl)nnc1-c1ccccc1 ?
Ans: inactive

Q: Hi, sorry to bother you, what did the test record for C=CCc1ccc(OC)cc1 ?
Ans: inactive

Q: Hi, sorry to bother you, what did the test record for NNC(=S)NN ?
Ans: inactive

Q: Hi, sorry to bother you, what did the test record for Nc1ccc(N=Nc2ccc(-c3ccc(N=Nc4c(S(=O)(=O)O)cc5cc(S(=O)(=O)O)c(N=Nc6ccccc6)c(O)c5c4N)cc3)cc2)c(N)c1 ?
Ans: inactive

Q: Hi, sorry to bother you, what did the test record for ClC1=C(Cl)[C@]2(Cl)[C@H]3[C@H]([C@H]4C=C[C@H]3C4)[C@@]1(Cl)C2(Cl)Cl ?
Ans: inactive
